# Target of assay: IL-17A : IL-17RA binding (Homo sapiens, UniProt Q16552, K93Q)
# Construct: Name: IL-17A-Flag
# Sequence (Q16552 with tags, fused parts or gaps K93Q): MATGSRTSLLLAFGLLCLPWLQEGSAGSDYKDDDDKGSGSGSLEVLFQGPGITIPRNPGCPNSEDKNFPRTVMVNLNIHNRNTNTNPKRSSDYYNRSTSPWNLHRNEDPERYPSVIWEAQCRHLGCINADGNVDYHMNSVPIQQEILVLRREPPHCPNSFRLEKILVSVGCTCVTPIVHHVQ
# Test summary: IL-17A(FLAG-tagged):IL-17RA(His-tagged) binding disruption Eu-HTRF assay, Protocol 1
# Recorded conditions: FLAG-IL-17A 2.5 nM at 2x final concentration; average if tested more than once
Value kind: IC50

Supply IC50 value. Item: `CC(C)n1nccc1C(=O)N[C@H](c1nc2cc([C@H](NC(=O)CC3CC(F)(F)C3)C3CC3)ccc2[nH]1)C1CCC(F)(F)CC1`
50 to 100 nM

Identify IC50 associated with the compound `C[C@@H](NC(=O)CCC(F)(F)F)c1ccc2[nH]c([C@@H](NC(=O)c3cnnn3CCC3CC3)C3CCC(F)(F)CC3)nc2c1`
> 100 nM

Recall and state the measured IC50 for `Cc1nonc1C(=O)N[C@H](c1nc2ccc([C@H](NC(=O)CC3CC(F)(F)C3)C3CC3)cc2[nH]1)[C@@H]1C[C@H]2C[C@H]2C1` .
< 50 nM

Identify measured IC50 corresponding to `CC(C)n1nccc1C(=O)N[C@@H](CC1(C(F)(F)F)CC1)c1nc2ccc([C@H](NC(=O)CC3CC(F)(F)C3)C3CC3)cc2[nH]1`
> 100 nM

For the compound `C[C@@H](NC(=O)CCC(F)(F)F)c1ccc2[nH]c([C@@H](NC(=O)C3(F)CC3)C3CCC(F)(F)CC3)nc2c1` , report IC50.
> 100 nM

Look up and state reported IC50 for CCCC(NC(=O)CCC(F)(F)F)c1ccc2[nH]c([C@@H](NC(=O)c3ccnn3C)C3CCC(F)(F)CC3)nc2c1 (single isomer, unassigned) [Example 50]
> 100 nM

Consider the compound CC(C)n1nccc1C(=O)NC(COC(C)(C)C(C)(F)F)c1nc2ccc([C@H](NC(=O)CC3CC(F)(F)C3)C3CC3)cc2[nH]1 (single isomer, unassigned) and give its recorded IC50.
> 100 nM

Kindly indicate its recorded IC50. Item: CC(NC(=O)CCC(F)(F)F)c1ccc2nc([C@H](CC(C)(C)C(F)(F)F)NC(=O)c3ccnn3C(C)C)[nH]c2c1 (single isomer, unassigned) [Example 232]
> 100 nM

Let me know recorded IC50 for C[C@@H](NC(=O)CCC(F)(F)F)c1ccc2[nH]c([C@@H](NC(=O)c3cnn(CC4CCC4(F)F)n3)C3CCC(F)(F)CC3)nc2c1 (stereo partly drawn) , thanks.
> 100 nM

Give me measured IC50, please, for this compound: `CC(C)c1ccsc1C(=O)N[C@H](c1nc2cc([C@@H](C)NC(=O)CCC(F)(F)F)ccc2[nH]1)C1CCC(F)(F)CC1`
< 50 nM

Input `CC(C)n1cncc1C(=O)N[C@H](c1nc2cc([C@@H](C)NC(=O)CCC(F)(F)F)ccc2[nH]1)C1CCC(F)(F)CC1` , output reported IC50.
> 100 nM

Return reported IC50. Input compound: `C[C@@H](NC(=O)CCC(F)(F)F)c1ccc2[nH]c([C@@H](NC(=O)c3cc(CCC(F)(F)F)no3)C3CCC(F)(F)CC3)nc2c1`
> 100 nM

* * *

# Target of assay: IL-17A : IL-17RA binding (Homo sapiens, UniProt Q16552, K93Q)
# Construct: Name: IL-17A-Flag
# Test summary: IL-17A(FLAG-tagged):IL-17RA(His-tagged) binding disruption Eu-HTRF assay, Protocol 1
# Recorded conditions: FLAG-IL-17A 2.5 nM at 2x final concentration; average if tested more than once
Value kind: IC50

Give IC50 for `C[C@@H](NC(=O)CCC(F)(F)F)c1ccc2nc([C@@H](NC(=O)c3cnn(C)c3C(F)(F)F)C3CCC(F)(F)CC3)[nH]c2c1`
> 100 nM

Item `C[C@@H](NC(=O)CCC(F)(F)F)c1ccc2[nH]c([C@@H](NC(=O)[C@@H]3C[C@H]3F)C3CCC(F)(F)CC3)nc2c1` : provide IC50
> 100 nM

Report measured IC50; entry is `CC(C)c1ocnc1C(=O)N[C@H](c1nc2cc([C@@H](C)NC(=O)CCC(F)(F)F)ccc2[nH]1)C1CCC(F)(F)CC1`
50 to 100 nM

Supply reported IC50 belonging to this compound: `C[C@@H](NC(=O)CCC(F)(F)F)c1ccc2[nH]c([C@@H](NC(=O)c3ncnn3CCC(F)(F)F)C3CCC(F)(F)CC3)nc2c1`
50 to 100 nM

Output IC50 of Cc1nonc1C(=O)N[C@H](c1nc2ccc([C@H](NC(=O)CC3CC(F)(F)C3)C3CC3)cc2[nH]1)C1CCC(F)(F)CO1 (single isomer, unassigned)
> 100 nM

Please report the measured IC50 for C[C@@H](NC(=O)CCC(F)(F)F)c1ccc2[nH]c([C@@H](NC(=O)c3cnn(CC4CC(F)(F)C4(F)F)n3)C3CCC(F)(F)CC3)nc2c1 (stereo partly drawn)
> 100 nM

* * *

# Tested on: IL-17A-induced G-CSF production in human normal keratinocyte (NHK)
# Test summary: NHK assay: IL-17A-induced G-CSF production in normal human keratinocytes
# Assay type: cell-based
# Recorded conditions: Homo sapiens, Keratinocyte, 24 h, IL-17A 5 ng/mL, average if tested more than once
# Description: IL-17A acts directly on keratinocytes through binding to dimeric receptor IL-17RA/RC and drives the production of a number of inflammatory mediators known to be elevated in psoriasis lesional tissue. IL-17A small molecule inhibitors that block the IL-17A to interact with IL-17R would inhibit the IL-17A signaling in its targeted cells such as keratinocytes. The compound functional activity is evaluated for its impact on IL-17A-induced G-CSF production in human normal keratinocyte (NHK). […]
Value kind: IC50

Report IC50 from IL-17A-induced G-CSF production in human normal keratinocyte (NHK) testing of `C[C@@H](NC(=O)CC(C(F)(F)F)C(F)(F)F)c1ccc2[nH]c([C@@H](NC(=O)c3ccnn3CC(F)(F)F)C3CCC(F)(F)CC3)nc2c1`
50 to 100 nM

Look up and report IC50, with IL-17A-induced G-CSF production in human normal keratinocyte (NHK) as system, for Cc1nonc1C(=O)N[C@@H](CC(C)(C)C(F)(F)F)c1nc2cc([C@@H](NC(=O)CCC(F)(F)F)C3CC3)ccc2[nH]1 (relative stereo)
> 100 nM

Provide measured IC50 on IL-17A-induced G-CSF production in human normal keratinocyte (NHK) for Cn1nccc1C(=O)N[C@H](c1nc2cc(C(CC3CCC3)NC(=O)CCC(F)(F)F)ccc2[nH]1)C1CCC(F)(F)CC1 (single isomer, unassigned) please.
> 100 nM

# return IC50 of `C[C@@H](NC(=O)CCC(F)(F)F)c1ccc2[nH]c([C@@H](NC(=O)c3ncnn3C)C3CCC(F)(F)CC3)nc2c1` (system: IL-17A-induced G-CSF production in human normal keratinocyte (NHK))
> 100 nM

For IL-17A-induced G-CSF production in human normal keratinocyte (NHK), give IC50 of the listed compound: `CC(C)n1nccc1C(=O)N[C@H](c1nc2cc([C@@H](C)NC(=O)CC(C(F)(F)F)C(F)(F)F)ccc2[nH]1)C1CCC(F)(F)CC1`
< 50 nM

Please tell me the measured IC50 for `C[C@@H](NC(=O)CCC(F)(F)F)c1ccc2nc([C@@H](NC(=O)c3ccnn3CCC(F)(F)F)C3CCC(F)(F)CC3)[nH]c2c1` ; system: IL-17A-induced G-CSF production in human normal keratinocyte (NHK).
< 50 nM

Send back IL-17A-induced G-CSF production in human normal keratinocyte (NHK) IC50 of `C[C@@H](NC(=O)CCC(F)(F)F)c1ccc2[nH]c([C@@H](NC(=O)c3cnn(CC4CC4)n3)C3CCC(F)(F)CC3)nc2c1` only.
> 100 nM

Identify measured IC50 obtained with IL-17A-induced G-CSF production in human normal keratinocyte (NHK) for CC(CC(=O)N[C@H](C)c1ccc2nc([C@@H](NC(=O)c3ccnn3CCC(F)(F)F)C3CCC(F)(F)CC3)[nH]c2c1)C(F)(F)F (single isomer, unassigned) .
> 100 nM

Tell me IC50 of `C[C@@H](NC(=O)CCC(F)(F)F)c1ccc2[nH]c([C@@H](NC(=O)C3(C)CC3)C3CCC(F)(F)CC3)nc2c1` when tested on IL-17A-induced G-CSF production in human normal keratinocyte (NHK).
> 100 nM

Please respond with reported IC50 (system IL-17A-induced G-CSF production in human normal keratinocyte (NHK)) for `C[C@@H](NC(=O)CCC(F)(F)F)c1ccc2[nH]c([C@@H](NC(=O)c3cc(CCC(F)(F)F)no3)C3CCC(F)(F)CC3)nc2c1` .
> 100 nM

Report its IC50 with IL-17A-induced G-CSF production in human normal keratinocyte (NHK) as the test system: CC(C)n1nccc1C(=O)N[C@H](c1nc2ccc([C@H](NC(=O)CC3CC(F)(F)C3)C3CC3)cc2[nH]1)C1CC(F)(F)CCO1 (single isomer, unassigned)
< 50 nM

Consider the compound `C[C@@H](NC(=O)CCC(F)(F)F)c1ccc2[nH]c([C@@H](NC(=O)c3cn(CC4CC4)nn3)C3CCC(F)(F)CC3)nc2c1` tested on IL-17A-induced G-CSF production in human normal keratinocyte (NHK); state its IC50.
> 100 nM

Cited source: patent US20240376085A1
